assayedSystem: T1, IL-1 receptor (IL-1R) expressed on human monocytes (human, UniProt P14778 18-569)
T1 construct: whole, on cells; The same entry stands for the receptor on human dermal fibroblasts and on colonic epithelial cell lines in the functional rows; also called interleukin-1 receptor
T1 sequence (looked up): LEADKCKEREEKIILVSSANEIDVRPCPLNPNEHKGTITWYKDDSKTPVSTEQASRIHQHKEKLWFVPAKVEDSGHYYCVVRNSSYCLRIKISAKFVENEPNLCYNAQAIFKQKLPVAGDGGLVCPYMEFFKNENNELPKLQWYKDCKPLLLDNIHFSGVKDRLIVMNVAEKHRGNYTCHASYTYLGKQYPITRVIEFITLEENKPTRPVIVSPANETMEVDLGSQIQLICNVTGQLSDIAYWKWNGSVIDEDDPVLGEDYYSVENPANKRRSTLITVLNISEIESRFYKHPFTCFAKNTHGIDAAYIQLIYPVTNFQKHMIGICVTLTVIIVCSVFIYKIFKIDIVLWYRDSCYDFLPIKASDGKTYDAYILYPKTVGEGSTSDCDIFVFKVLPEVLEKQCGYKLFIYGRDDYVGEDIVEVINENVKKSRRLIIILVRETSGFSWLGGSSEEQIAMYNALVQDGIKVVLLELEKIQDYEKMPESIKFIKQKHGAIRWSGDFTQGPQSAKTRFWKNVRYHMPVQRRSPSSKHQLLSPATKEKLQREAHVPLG
methodSummary: radioligand competition, 40 pM 125I-IL-1α on confluent human monocytes
pIC50: −log10 of the molar value. No end group written: not given here.
recordedEndpoint: pIC50

Illustrative cases are given below, each with its answer.
INSERT INTO results (binder, quantitativereadout) VALUES
  ('Ac-DGYDRWRQSGERYWQPYALPL (also called peptide 20) [peptide of SEQ ID NO: 20 (Ac-DGYDRWRQSGERYWQPYALPL)]', 8.09),
  ('Ac-FEWTPGYWQPYALPL (also called peptide 19) [peptide of SEQ ID NO: 19 (Ac FEWTPGYWQPYALPL)]', 8.15);

(P) Ac-FTWEESNAYYWQPYALPL (also called peptide 15) [peptide of SEQ ID NO: 15 (Ac-FTWEESNAYYWQPYALPL)]
(Q) Ac-TANVSSFEWTPGYWQPYALPL (also called peptide 17) [peptide of SEQ ID NO: 17 (Ac-TANVSSFEWTPGYWQPYALPL)]
Identify the item whose pIC50 is the smaller number: P or Q In your reply, give the label of the chosen option.
P
(P: 7.70, Q: 8.12)
